ASSAY_REMARKS: in vitro
CONDITION_SET: human, hela cells, % viability
MEASUREMENT_KIND: viability at 28.5 h, 10 µM (%)
Respond numerically; units are % and should not be typed.

[
  {
    "MOLECULE": "CCc1ccc(CNC(=O)Cn2nnc(-c3ccc(CNC4CCC4)cc3)n2)cc1 [CBK155006T]",
    "MEASUREMENT_KIND": "viability at 28.5 h, 10 µM",
    "REPORTED_RESULT": 111
  },
  {
    "MOLECULE": "Cc1noc(C)c1S(=O)(=O)Nc1nc(=O)[nH]cc1F [CBK067569]",
    "MEASUREMENT_KIND": "viability at 28.5 h, 10 µM",
    "REPORTED_RESULT": 103
  },
  {
    "MOLECULE": "C[C@H]1[C@@H]2[C@@H](O)C([C@H](C)C(=O)N3CCCC3)CC[C@@]2(C)CC[C@@H]1NC(=O)c1ccccc1 (some centres unmarked) [CBK289441]",
    "MEASUREMENT_KIND": "viability at 28.5 h, 10 µM",
    "REPORTED_RESULT": 106
  },
  {
    "MOLECULE": "CCCC(C(=O)O)C(C)CC(=O)Nc1ccccc1Cl (centres unmarked) [CBK286927]",
    "MEASUREMENT_KIND": "viability at 28.5 h, 10 µM",
    "REPORTED_RESULT": 99.1
  }
]

Now examine the next entry.
Could you tell me which viability at 28.5 h, 10 µM is on file for CN1Cc2ccccc2-c2ccc(O)cc21 [CBK017804] ? 97.2

----------
Below, each entry is listed alongside its reported viability at 28.5 h, 10 µM.
ASSAY_REMARKS: in vitro
CONDITION_SET: human, hela cells, % viability
Value expressed in %; do not type the unit.

[
  {
    "COMPOUND": "Cc1cc(CN2CCC(N(C)Cc3nnc(C)n3C)C2)no1 (stereo not drawn)",
    "viability at 28.5 h, 10 µM, %": 96.6
  },
  {
    "COMPOUND": "Cc1ccccc1-c1noc(C(C)NC(=O)C2(Cn3ccnc3)CC2)n1 (stereo not drawn)",
    "viability at 28.5 h, 10 µM, %": 99.7
  },
  {
    "COMPOUND": "CC(=O)Nc1ccc(C(=O)NC(c2cccs2)C2CCCC2)cc1 (stereo not drawn)",
    "viability at 28.5 h, 10 µM, %": 84.1
  }
]

Reported viability at 28.5 h, 10 µM, compound "Cc1cc2c(cc1S(=O)(=O)NCCc1ccccc1)NC(=O)CO2" : ____ 102

Field request: viability at 28.5 h, 10 µM | item: "O=C(N[C@H]1CCN2C(=O)c3cc(Br)ccc3NC(=O)[C@H]12)c1cccc(F)c1" 82.3

Report viability at 28.5 h, 10 µM for COc1ccc2c(c1)C1(CC(=O)N(Cc3ccccc3)C1=O)C(=O)N2CCn1cnc2c1c(=O)n(C)c(=O)n2C (stereo not drawn) please. 93.5

Dear colleague, I am looking for the recorded viability at 28.5 h, 10 µM of the following compound: COc1ccccc1-c1noc(CN2CCCC(C(F)(F)F)C2)n1 (stereo not drawn) 93.6

Could you tell me which viability at 28.5 h, 10 µM is on file for "CC(C)(CNC(=O)Cn1cc(C(=O)Nc2ccc(F)cc2)ccc1=O)c1cccc(F)c1" ? 99.6

Item "O=C(CSc1nc2sc3c(c2c(=O)n1CCc1ccccc1)CCCC3)Nc1ccccc1" has what recorded viability at 28.5 h, 10 µM? 112

----------
ASSAY_REMARKS: in vitro
CONDITION_SET: human, hela cells, % viability
In this section we review reported viability at 28.5 h, 10 µM values for a set of compounds.
Quick reminder: number only, in %, skip the unit.

[
  {
    "COMPOUND": "C=CCN1C(=O)C2(CC(=O)N(Cc3ccc(OC)c(OC)c3)C2=O)c2ccccc21 (centres unmarked)",
    "MEASUREMENT_KIND": "viability at 28.5 h, 10 µM",
    "UNITS_TEXT": "%",
    "REPORTED_RESULT": 114
  },
  {
    "COMPOUND": "c1ccc(C[n+]2cn3cc(-c4ccccc4)nc3[n-]2)cc1",
    "MEASUREMENT_KIND": "viability at 28.5 h, 10 µM",
    "UNITS_TEXT": "%",
    "REPORTED_RESULT": 94
  },
  {
    "COMPOUND": "O=C(c1cccnc1)C1CCN(C(=O)Cc2ccccc2Cl)CC1",
    "MEASUREMENT_KIND": "viability at 28.5 h, 10 µM",
    "UNITS_TEXT": "%",
    "REPORTED_RESULT": 90.3
  },
  {
    "COMPOUND": "COCc1nc(NCCCn2c(C)cccc2=O)cc(C2CCOC2)n1 (centres unmarked)",
    "MEASUREMENT_KIND": "viability at 28.5 h, 10 µM",
    "UNITS_TEXT": "%",
    "REPORTED_RESULT": 90.9
  }
]

// next entry
So what's the measured viability at 28.5 h, 10 µM for this one? "CC(=O)Nc1ccc(NC(=O)CSCC(=O)O)cc1" 89.3

----------
Each entry below lists one item and its recorded viability at 28.5 h, 10 µM value.
ASSAY_REMARKS: in vitro
CONDITION_SET: human, hela cells, % viability
# number only, unit % dropped from output

Example compounds with recorded viability at 28.5 h, 10 µM:
[
  {
    "COMPOUND": "CN1CCN(c2nccnc2-c2ccoc2)CC1 [CBK088834]",
    "REPORTED_RESULT": 98.6
  },
  {
    "COMPOUND": "Cc1cc(S(=O)(=O)NC2CCCCC2)ccc1OCC(=O)O [CBK267832]",
    "REPORTED_RESULT": 104
  },
  {
    "COMPOUND": "Nc1nnnn1/N=C/c1cc(Cl)cc(Cl)c1OCc1ccc(Cl)cc1Cl [CBK263853]",
    "REPORTED_RESULT": 107
  },
  {
    "COMPOUND": "O=S(=O)(Cc1ccccc1)Nc1nccnc1-c1cccs1 [CBK050766]",
    "REPORTED_RESULT": 91.3
  },
  {
    "COMPOUND": "CC(=O)c1cc(C(=O)N2CCC(O)(c3ccccc3C)CC2)cs1 [CBK282532]",
    "REPORTED_RESULT": 92.8
  },
  {
    "COMPOUND": "COc1cc(F)ccc1-c1nc2ncccc2cc1NS(C)(=O)=O [CBK085692]",
    "REPORTED_RESULT": 89
  }
]

I am curious: what viability at 28.5 h, 10 µM value has been reported for O=C1NC2(CCCCC2)C(=O)N1c1cccc(Cl)c1 [CBK287969] ? 94.3

For the compound CN(C)c1ccc(-n2ncc(-c3ccccc3C(F)(F)F)n2)cc1 [CBK112716] , what viability at 28.5 h, 10 µM is on record? 92.4

For the compound N#Cc1ccccc1Cn1ccc2c(N3CCNCC3)cccc21 [CBK200015C] , what viability at 28.5 h, 10 µM is on record? 102

# get_value(readout='viability at 28.5 h, 10 µM', item= CN1C(=O)COc2ccccc2C/C=C/C[C@@H]2[C@H]1CCCN2C(=O)c1cnn2cccnc12 [CBK292083] ) 109

----------
ASSAY_REMARKS: in vitro
CONDITION_SET: human, hela cells, % viability
molecules and their reported viability at 28.5 h, 10 µM
Express it in %; write the number only.

Consider the worked cases shown below.
[
  {
    "MOLECULE": "Cc1ccc(C2(CN3CCC(NC(=O)c4cc[nH]n4)CC3)CC2)cc1",
    "MEASUREMENT_KIND": "viability at 28.5 h, 10 µM",
    "REPORTED_RESULT": 97.8
  },
  {
    "MOLECULE": "C[C@@H]1CN2CCCC2CN1Cc1ccc(Br)o1 (some centres unmarked)",
    "MEASUREMENT_KIND": "viability at 28.5 h, 10 µM",
    "REPORTED_RESULT": 99.7
  },
  {
    "MOLECULE": "CCCc1n[nH]c(=S)n1CC(=O)Nc1cccc(-n2ncc(C(=O)OCC)c2C)c1",
    "MEASUREMENT_KIND": "viability at 28.5 h, 10 µM",
    "REPORTED_RESULT": 90.2
  }
]

May I ask what viability at 28.5 h, 10 µM has been recorded for CN1CCc2c(sc3c2C(=O)NC(c2ccco2)N3)C1 (centres unmarked) ? 99.4

Would you kindly share the measured viability at 28.5 h, 10 µM for "O=C1CN(C(=O)c2cc(-c3ccncc3)nc3ccccc23)CCN1" ? 104

Sourced from paper PMC12040169
